The measured values listed here are drawn from patent US20240409629A1.

target: human CLDN18.2 (human); experiment: cell-based or functional assay
Would you mind telling me the reported ADCC EC50, Jurkat-CD16a v158-NFAT-luciferase effector cells, KATOIII target cells of each entry?
One number for each entry, in nM.

IMAB362 (antibody, human IgG1, kappa, V domains shown, Positive control, prepared in-house; also called Claudiximab; TMAB362 [sic]) VH: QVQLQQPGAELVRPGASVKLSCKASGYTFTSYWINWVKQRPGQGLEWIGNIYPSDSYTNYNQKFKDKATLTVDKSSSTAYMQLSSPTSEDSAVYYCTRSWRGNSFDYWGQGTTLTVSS VL: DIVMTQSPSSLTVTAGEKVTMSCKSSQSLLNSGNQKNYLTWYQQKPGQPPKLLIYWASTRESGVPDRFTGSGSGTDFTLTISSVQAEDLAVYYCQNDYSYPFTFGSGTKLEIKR	16.9
humanized antibody hz28G3-1.4 (antibody, human IgG1, kappa, V domains shown) VH: QVQLVQSGAEVKKPGASVKVSCKASGYTFTDYLMLWVRQAHGQSLEWMGNINPYYGRTYYALKFQGRVTMTVDRSTSTVYMELSSLRSEDTAVYYCARDGYSLRNAMDYWGQGTLVTVSS VL: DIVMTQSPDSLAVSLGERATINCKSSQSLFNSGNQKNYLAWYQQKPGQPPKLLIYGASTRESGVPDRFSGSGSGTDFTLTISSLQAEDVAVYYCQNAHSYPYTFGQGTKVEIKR	0.184

GET /value?item= humanized antibody hz28G3-1.2 (antibody, human IgG1, kappa, V domains shown) VH: QVQLVQSGAEVKKPGASVKVSCKASGYTFTDYLMLWVRQAPGQGLEWMGNINPYYGRTYYALKFQGRVTMTVDRSTSTVYMELSSLRSEDTAVYYCARDGYSLRNAMDYWGQGTLVTVSS VL: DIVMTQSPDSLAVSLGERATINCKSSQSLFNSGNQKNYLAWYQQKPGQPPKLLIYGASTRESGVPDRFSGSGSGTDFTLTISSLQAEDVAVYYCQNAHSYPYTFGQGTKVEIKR &field=ADCC EC50, Jurkat-CD16a v158-NFAT-luciferase effector cells, KATOIII target cells returns 0.396
